Test system: PC-3 prostate
Assay: NCI tumour cell line growth inhibition, 48 h
# Lookup of reported TGI keyed by entry

In the examples that follow, each entry is paired with its recorded TGI.
# COMPOUND, RESULT_VALUE
measured = [
    ("O=C1CSSCC(=O)Nc2ccccc2N1", "> 100 µM"),
    ("O=C1c2[nH]c3ccc(Br)cc3c2CCN1Cc1ccc(Cl)cc1", "19.4 µM"),
    ("O=C1N[C@H]2c3c(Cl)sc(Cl)c3[C@@H](O)[C@H]2O1", "> 100 µM"),
    ("C[N+](C)(C)CCCSc1nc2ccccc2[nH]1", "> 100 µM"),
    ("c1nc(N2CC2)c2cnn(C3CCCCO3)c2n1 (stereo unspecified)", "> 100 µM"),
]

Name the recorded TGI of O=C1CN(C(=O)C2CCCN2C(=O)C2CCCN2)C(=O)CN1 (stereo unspecified) , assay system PC-3 prostate.
> 100 µM

* * *

System: IGROV1 ovarian
Assay: NCI tumour cell line growth inhibition, 48 h
# Lookup of reported TGI keyed by entry

# COMPOUND, TGI
data = [
    ("COc1cc(C(=O)CBr)c(OC)cc1C", "> 100 µM"),
    ("CCc1ccccc1NC(=O)C1=C(C)NC(C)=C(C(=O)Nc2ccccc2CC)C1c1ccc2c(c1)OCO2", "> 100 µM"),
    ("O=C(O)CCC(=O)Nc1ccc2ccccc2c1", "> 100 µM"),
    ("Nc1c(-c2ccc(Cl)cc2)[n+]([O-])c2ccccc2[n+]1[O-]", "> 100 µM"),
    ("Cc1c(C(=O)C/C(=N/NC(=O)C[N+](C)(C)C)C(=O)Nc2ccc(Cl)cc2)[n+](=O)c2ccccc2n1O", "> 100 µM"),
]

Pending compound:
Name the recorded TGI of `CCC/C=C/c1cc2c(cc1O)CC[C@@H]1[C@@H]2CC[C@]2(C)[C@@H](O)CC[C@@H]12` , assay system IGROV1 ovarian.
49.4 µM

* * *

# Lookup of reported GI50 keyed by entry
System: NCI/ADR-RES ovarian
Assay: NCI tumour cell line growth inhibition, 48 h

# COMPOUND, RESULT_VALUE
rows = [
    ("Cc1ccc2c(c1)Sc1c(ccc3ccccc13)N2", "41900 nM"),
    ("CCCC(=O)OCC1OC(n2cnc3c(=S)nc[nH]c32)C(OC(=O)CCC)C1OC(=O)CCC (stereo not given)", "8150 nM"),
    ("OCCCNc1nc(=S)[nH]c2[nH]ncc12", "> 100000 nM"),
    ("CCOC1Oc2ccc(C)cc2C(=O)/C1=C\\Nc1ccc(C(N)=O)cc1 (stereo not given)", "17700 nM"),
    ("CC1(C)OC2=C(CC1Br)C(=O)C(=O)c1ccccc12 (stereo not given)", "2260 nM"),
]

Indicate its recorded GI50; the compound in question is `CC[C@@]1(c2ccccc2)C2=C(CC(C)(C)CC2=O)Nc2[nH]ncc21`
> 100000 nM

Indicate its recorded GI50; the compound in question is `O=C1Nc2ccccc2C1(c1ccc(O)cc1)c1ccc(O)cc1`
982 nM

* * *

Test system: A498 renal
Test: NCI tumour cell line growth inhibition, 48 h
REPORTED_METRIC: TGI

In the examples that follow, each entry is paired with its recorded TGI.
# COMPOUND, TGI
measured = [
    ("N#CC(C#N)=C1Nc2ccccc2S1", "55.5 µM"),
    ("O=C(CC1C(=O)NN(c2ccc(Br)cc2)C1=O)c1cc(O)ccc1O (centres undefined)", "> 50 µM"),
]

Indicate its recorded TGI; the compound in question is CC(=O)OCC1OC(NC(=S)N/N=C2\CC(c3ccccc3)Oc3ccccc32)C(OC(C)=O)C(OC(C)=O)C1OC(C)=O (centres undefined)
> 100 µM

Indicate its recorded TGI; the compound in question is `C#CCNC(=O)c1cccc2c1cc(C)n2-c1nc2c(c(NCc3ccccc3)n1)CCCC2`
0.0591 µM

Indicate its recorded TGI; the compound in question is `COC(=O)Nc1nc2ccc(Oc3ccc(NC(=O)Nc4cc(C(F)(F)F)ccc4F)cc3)cc2s1`
> 25 µM

Indicate its recorded TGI; the compound in question is `Cc1cccc(C(C)C)c1NC(=O)/C(Cc1c([N+](=O)[O-])cccc1[N+](=O)[O-])=N/NC(=O)CC#N`
> 100 µM

Indicate its recorded TGI; the compound in question is `Cc1cc2c(cc1C(=O)CCC(=O)O)CC1(C2)Cc2cc(C)c(C(=O)CCC(=O)O)cc2C1`
> 100 µM

Indicate its recorded TGI; the compound in question is `C/C(O)=C(\N=O)C(=O)Nc1ccc(Cl)cc1Cl`
> 100 µM

Indicate its recorded TGI; the compound in question is `O=[N+]([O-])c1ccc2c(c1)S(=O)(=O)N1Cc3ccccc3CCN21`
> 100 µM

* * *

System: HL-60(TB) leukemia
Assay: NCI tumour cell line growth inhibition, 48 h
REPORTED_METRIC: TGI (µM)
// note: answer is a bare numeric in µM

In the examples that follow, each entry is paired with its recorded TGI.
# MOLECULE, UNIT_ABBREVIATION, TGI
rows = [
    ("COc1ccc(-c2onc(N)c2-c2cc(OC)c3c(c2)OCO3)cc1", "µM", 7.53),
    ("O=S(=O)(NC1=NCCN1C(=S)SN1CCn2c1nsc2=S)c1cccc(Cl)c1", "µM", 80.5),
    ("O=C1CCC(N2C(=O)c3ccccc3C2=O)C(=O)N1CO (stereo not drawn)", "µM", 89.5),
    ("CN1CCN(c2ccc3[nH]c(-c4cc(O)c5c(nc(CO)n5C)c4O)nc3n2)CC1", "µM", 47.2),
    ("N#CSC1CCCCNC1=O (stereo not drawn)", "µM", 87.4),
]

Name the recorded TGI of `O=S(=O)(SC1=NCCN1)c1ccc2ccccc2c1` , assay system HL-60(TB) leukemia.
38.4

Name the recorded TGI of `O=C(CCc1nnc2sc(-c3ccc(Cl)cc3Cl)nn12)c1nc2ccccc2[nH]1` , assay system HL-60(TB) leukemia.
5.52

Name the recorded TGI of `CC(=O)c1sc2c(c1OC(=O)c1ccco1)c(=O)n(-c1ccccc1)c(=S)n2-c1ccccc1` , assay system HL-60(TB) leukemia.
45

Name the recorded TGI of Cc1ccc([N+](=O)[O-])cc1S(=O)(=O)Nc1ccc(C2=NN(c3ccc([N+](=O)[O-])cc3[N+](=O)[O-])C(c3cccs3)C2)cc1 (stereo not drawn) , assay system HL-60(TB) leukemia.
62.9

Name the recorded TGI of `CN(C)CCNC(=O)c1cccc2ccc(-c3ccncc3)nc12` , assay system HL-60(TB) leukemia.
7.59

Name the recorded TGI of `COc1ccc2c(c1)-c1nc(=S)n(CCCN(C)C)c3ccc([N+](=O)[O-])c(c13)N2` , assay system HL-60(TB) leukemia.
1.64

Name the recorded TGI of `C#CCNC(=O)c1cccc2c1cc(C)n2-c1nc2c(c(NCc3ccccc3)n1)CCCC2` , assay system HL-60(TB) leukemia.
0.191

* * *

# Lookup of reported GI50 keyed by entry
Tested on: OVCAR-5 ovarian
Test: NCI tumour cell line growth inhibition, 48 h

# COMPOUND, STUDY_SYSTEM, RESULT_VALUE
records = [
    ("Cc1cc2c(cc1Cl)SC1=NN(C)S(=O)N1S2(=O)=O (stereo unspecified)", "OVCAR-5 ovarian", "> 100 µM"),
]

Pending compound:
Indicate its recorded GI50; the compound in question is Nc1nc2c(nnn2C2CC(O)C(CO)O2)c(=O)[nH]1 (stereo unspecified)
26.2 µM

* * *

Test system: RPMI-8226 leukemia
Assay: NCI tumour cell line growth inhibition, 48 h
# Lookup of reported log10 of TGI keyed by entry
Hello, just confirming the data are log10 of TGI with units of µM.

# COMPOUND, RESULT_VALUE
measured = [
    ("CCCCCCCCCCCCN(CC(O)C(O)C(OC1OC(CO)C(O)C(O)C1O)C(O)CO)C(=O)CCCCCCCCCCC (configuration not stated)", 1.71),
    ("N#CSC1CCCCNC1=O (configuration not stated)", 1.47),
]

Indicate its recorded log10 of TGI; the compound in question is `COc1ccc2c(c1)C(=O)c1c-2n(CCCn2ccnc2)c(=O)c2cc([N+](=O)[O-])ccc12`
-0.29

Indicate its recorded log10 of TGI; the compound in question is `Cc1ccc(S(=O)(=O)c2ccsc2NC(=O)C(F)(F)F)cc1`
1.49

Indicate its recorded log10 of TGI; the compound in question is `O=C1C(Cl)=C(NCCN2CCOCC2)C(=O)c2ncccc21`
0.97

Indicate its recorded log10 of TGI; the compound in question is `O=C(CCc1nnc2sc(-c3ccc(Cl)cc3Cl)nn12)c1nc2ccccc2[nH]1`
0.42

Indicate its recorded log10 of TGI; the compound in question is `CCC/C=C/c1cc2c(cc1O)CC[C@@H]1[C@@H]2CC[C@]2(C)[C@@H](O)CC[C@@H]12`
1.57

Indicate its recorded log10 of TGI; the compound in question is `CC(=O)c1sc2c(c1OC(=O)c1ccco1)c(=O)n(-c1ccccc1)c(=S)n2-c1ccccc1`
1.62

Indicate its recorded log10 of TGI; the compound in question is COC(=O)CC(c1cn(S(=O)(=O)c2ccc(C)cc2)c2ccccc12)C1C[C@@H](C(=O)OC)N(C(=O)OC(C)(C)C)C1=O (some centres not stated)
1.55
